Each entry below carries its recorded pKi.
- study_system: D2-Like receptors (Rattus norvegicus)
- Sequence (P61169 whole entry): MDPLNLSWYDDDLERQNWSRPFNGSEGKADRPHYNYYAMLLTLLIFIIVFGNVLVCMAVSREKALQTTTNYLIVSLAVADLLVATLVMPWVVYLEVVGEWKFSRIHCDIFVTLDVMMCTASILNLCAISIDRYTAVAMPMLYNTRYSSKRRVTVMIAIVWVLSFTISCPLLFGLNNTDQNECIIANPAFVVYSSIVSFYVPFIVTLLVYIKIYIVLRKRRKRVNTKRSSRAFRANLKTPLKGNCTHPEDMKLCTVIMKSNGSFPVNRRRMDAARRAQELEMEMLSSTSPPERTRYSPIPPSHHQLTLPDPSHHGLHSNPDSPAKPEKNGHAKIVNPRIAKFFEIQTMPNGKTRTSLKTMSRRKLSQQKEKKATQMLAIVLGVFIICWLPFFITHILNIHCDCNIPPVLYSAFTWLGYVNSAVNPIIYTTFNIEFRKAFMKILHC
- experiment: D2-like receptors binding assay, [3H]-YM 09151-2 (rat striatal membranes)
- condition_notes: Table 15; Cheng-Prusoff
pKi: −log10 of the molar value.
endpoint_name: pKi

>  <molecule>
CCCCCCCCN1CCN(c2ccccc2OC)CC1

>  <endpoint_name>
pKi

>  <experimental_result>
8.05

$$$$
>  <molecule>
CCCCCCCN1CCN(c2ccccc2OC)CC1

>  <endpoint_name>
pKi

>  <experimental_result>
8.05

$$$$
>  <molecule>
COc1ccc(CCN2CCN(c3ccccc3OC)CC2)cc1OC

>  <endpoint_name>
pKi

>  <experimental_result>
7.00

$$$$
>  <molecule>
CCCCCCN1CCN(c2ccccc2OC)CC1

>  <endpoint_name>
pKi

>  <experimental_result>
7.40

$$$$

* * *

- experiment: Acute toxicity test in Swiss mice (body temperature, behaviour for 14 days)
- Format: in vivo
- condition_notes: body temperature, 100 mg/kg ip, n=6

>  <molecule>
COc1ccc(CCN2CCN(c3ccccc3OC)CC2)cc1OC

>  <T (° C.) 60′ after LDT / °C>
35.17

$$$$
>  <molecule>
CCOc1ccccc1N1CCN(CCc2ccc3c(c2)OCO3)CC1

>  <T (° C.) 60′ after LDT / °C>
35.50

$$$$
>  <molecule>
COc1cccc(CCN2CCN(c3ccccc3OC)CC2)c1

>  <T (° C.) 60′ after LDT / °C>
35.50

$$$$
>  <molecule>
CCCCCN1CCN(c2ccccc2OC)CC1

>  <T (° C.) 60′ after LDT / °C>
37.17

$$$$
>  <molecule>
CCCCCCN1CCN(c2ccccc2OC)CC1

>  <T (° C.) 60′ after LDT / °C>
37.33

$$$$

* * *

Here the recorded pKi is given for each entry.
- study_system: 5-HT2A receptors (Rattus norvegicus)
- Construct: from tissue; host or cells: rat cortex membranes
- Sequence (P14842 whole entry): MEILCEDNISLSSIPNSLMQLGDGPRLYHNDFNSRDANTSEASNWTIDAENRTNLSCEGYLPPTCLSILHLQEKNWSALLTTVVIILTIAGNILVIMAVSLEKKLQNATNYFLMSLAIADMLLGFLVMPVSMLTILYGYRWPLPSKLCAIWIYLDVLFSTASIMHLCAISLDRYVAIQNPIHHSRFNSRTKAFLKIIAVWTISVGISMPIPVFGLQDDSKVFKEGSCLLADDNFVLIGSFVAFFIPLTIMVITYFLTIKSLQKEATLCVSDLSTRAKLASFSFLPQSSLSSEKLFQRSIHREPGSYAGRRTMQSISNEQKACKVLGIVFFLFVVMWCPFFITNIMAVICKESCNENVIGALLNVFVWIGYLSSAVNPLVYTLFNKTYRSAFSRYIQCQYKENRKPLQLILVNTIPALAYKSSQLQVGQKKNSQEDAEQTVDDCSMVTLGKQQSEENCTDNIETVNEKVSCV
- experiment: [3H]-ketanserin binding to 5-HT2A receptors (rat cortex membranes)
- condition_notes: Table 11; Cheng-Prusoff; read-out: Ki
pKi: −log10 of the molar value.

>  <molecule>
CCOc1ccccc1N1CCN(CC)CC1

>  <pKi>
5.21

$$$$
>  <molecule>
CCCCCCN1CCN(c2ccccc2OC)CC1

>  <pKi>
5.76

$$$$
>  <molecule>
CCCCN1CCN(c2ccccc2OC)CC1

>  <pKi>
5.25

$$$$
>  <molecule>
CCN1CCN(c2ccccc2OC)CC1

>  <pKi>
5.19

$$$$
>  <molecule>
CCN1CCN(c2ccccc2O)CC1

>  <pKi>
4.39

$$$$
>  <molecule>
CCCN1CCN(c2ccccc2OC)CC1

>  <pKi>
5.05

$$$$
>  <molecule>
CCCCCCCCN1CCN(c2ccccc2OC)CC1

>  <pKi>
5.83

$$$$
>  <molecule>
CCN1CCN(c2ccccc2)CC1

>  <pKi>
5.35

$$$$
>  <molecule>
CCCCCCCN1CCN(c2ccccc2OC)CC1

>  <pKi>
5.72

$$$$

* * *

Documented α1B log IC50 (M) across a set of molecules
- study_system: α1B adrenoceptors (Rattus norvegicus, UniProt P15823)
- Construct: from tissue; host or cells: rat liver membranes
- Sequence (P15823 1-515): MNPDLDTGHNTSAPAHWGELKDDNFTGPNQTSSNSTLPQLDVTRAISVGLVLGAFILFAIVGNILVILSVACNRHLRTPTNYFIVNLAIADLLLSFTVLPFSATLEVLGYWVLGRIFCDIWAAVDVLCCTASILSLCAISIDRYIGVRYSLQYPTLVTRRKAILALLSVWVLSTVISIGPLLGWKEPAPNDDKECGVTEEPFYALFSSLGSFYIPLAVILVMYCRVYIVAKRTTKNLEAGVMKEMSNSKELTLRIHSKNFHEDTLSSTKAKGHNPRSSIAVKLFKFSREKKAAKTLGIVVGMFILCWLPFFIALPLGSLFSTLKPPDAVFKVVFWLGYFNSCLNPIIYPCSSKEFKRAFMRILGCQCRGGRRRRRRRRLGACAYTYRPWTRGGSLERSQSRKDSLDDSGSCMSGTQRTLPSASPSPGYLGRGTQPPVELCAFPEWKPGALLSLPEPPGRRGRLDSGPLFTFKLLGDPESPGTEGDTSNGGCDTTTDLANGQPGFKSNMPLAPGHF
- experiment: Binding of [3H]-prazosin to α1B adrenoceptors (rat liver membranes)
- condition_notes: Table 5

>  <molecule>
CCCCCCCN1CCN(c2ccccc2OC)CC1 [LDT 67]

>  <measurement_unit>
M

>  <α1B log IC50 (M)>
−6.87

$$$$
>  <molecule>
CCCCN1CCN(c2ccccc2OC)CC1 [LDT 64]

>  <measurement_unit>
M

>  <α1B log IC50 (M)>
−6.33

$$$$
>  <molecule>
CCN1CCN(c2ccccc2O)CC1 [LDT 70]

>  <measurement_unit>
M

>  <α1B log IC50 (M)>
−6.07

$$$$
>  <molecule>
CCOc1ccccc1N1CCN(CC)CC1 [LDT 69]

>  <measurement_unit>
M

>  <α1B log IC50 (M)>
−6.53

$$$$
>  <molecule>
CCN1CCN(c2ccccc2)CC1 [LDT 39]

>  <measurement_unit>
M

>  <α1B log IC50 (M)>
−6.29

$$$$
>  <molecule>
CCCN1CCN(c2ccccc2OC)CC1 [LDT 63]

>  <measurement_unit>
M

>  <α1B log IC50 (M)>
−6.22

$$$$
>  <molecule>
CCN1CCN(c2ccccc2OC)CC1 [LDT 62]

>  <measurement_unit>
M

>  <α1B log IC50 (M)>
−6.27

$$$$
>  <molecule>
CCCCCCN1CCN(c2ccccc2OC)CC1 [LDT 66]

>  <measurement_unit>
M

>  <α1B log IC50 (M)>
−6.51

$$$$
>  <molecule>
CCCCCCCCN1CCN(c2ccccc2OC)CC1 [LDT 68]

>  <measurement_unit>
M

>  <α1B log IC50 (M)>
−6.69

$$$$

* * *

- study_system: α1A adrenoceptors (Oryctolagus cuniculus, UniProt O02824)
- Construct: from tissue; host or cells: rabbit liver membranes
- Sequence (O02824 whole entry): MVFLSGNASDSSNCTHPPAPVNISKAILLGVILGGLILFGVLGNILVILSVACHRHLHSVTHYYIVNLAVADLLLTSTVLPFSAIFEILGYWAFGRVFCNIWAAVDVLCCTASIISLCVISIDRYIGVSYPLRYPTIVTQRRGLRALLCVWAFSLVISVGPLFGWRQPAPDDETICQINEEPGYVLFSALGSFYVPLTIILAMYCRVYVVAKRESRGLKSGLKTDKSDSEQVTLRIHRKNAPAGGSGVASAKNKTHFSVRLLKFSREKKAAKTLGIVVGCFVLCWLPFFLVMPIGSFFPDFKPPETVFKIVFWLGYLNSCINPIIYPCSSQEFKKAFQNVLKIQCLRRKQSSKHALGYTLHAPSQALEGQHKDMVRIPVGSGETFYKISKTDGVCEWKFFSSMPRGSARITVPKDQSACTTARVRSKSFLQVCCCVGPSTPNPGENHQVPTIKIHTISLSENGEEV
- experiment: Binding of [3H]-prazosin to α1A adrenoceptors (rabbit liver membranes)
pKi: −log10 of the molar value.
Assign class by pKi: not lower than 8 means met; lower than 8 means not met.

>  <molecule>
COc1cccc(CCN2CCN(c3ccccc3OC)CC2)c1

>  <discrete_label>
met

$$$$
>  <molecule>
CCOc1ccccc1N1CCN(CCc2ccc3c(c2)OCO3)CC1

>  <discrete_label>
met

$$$$
>  <molecule>
CCCCCN1CCN(c2ccccc2OC)CC1

>  <discrete_label>
not met

$$$$
>  <molecule>
COc1ccc(CCN2CCN(c3ccccc3OC)CC2)cc1OC

>  <discrete_label>
met

$$$$

* * *

- study_system: α2A receptors (Rattus norvegicus)
- Construct: from tissue; host or cells: rat cortex membranes
- Sequence (P22909 whole entry): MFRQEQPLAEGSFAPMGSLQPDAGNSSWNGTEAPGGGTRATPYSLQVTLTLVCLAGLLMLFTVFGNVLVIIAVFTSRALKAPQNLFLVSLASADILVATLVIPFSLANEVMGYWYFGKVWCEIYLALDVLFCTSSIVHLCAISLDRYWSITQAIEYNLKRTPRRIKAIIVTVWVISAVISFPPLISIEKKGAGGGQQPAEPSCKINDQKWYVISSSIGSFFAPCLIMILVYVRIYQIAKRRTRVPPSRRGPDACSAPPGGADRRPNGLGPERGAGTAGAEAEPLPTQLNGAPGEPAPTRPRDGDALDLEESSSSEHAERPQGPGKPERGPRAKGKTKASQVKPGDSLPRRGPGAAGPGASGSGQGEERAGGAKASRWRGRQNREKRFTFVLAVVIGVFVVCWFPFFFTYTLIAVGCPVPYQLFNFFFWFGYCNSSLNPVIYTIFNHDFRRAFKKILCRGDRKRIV
- experiment: Binding of [3H]RX821002 to α2A receptors (rat cortex membranes)
- condition_notes: Table 12; Cheng-Prusoff; read-out: Ki
endpoint_name: Ki (nM)

>  <molecule>
COc1cccc(CCN2CCN(c3ccccc3OC)CC2)c1

>  <study_system>
α2A receptors (Rattus norvegicus)

>  <endpoint_name>
Ki

>  <experimental_result>
930

$$$$
>  <molecule>
CCOc1ccccc1N1CCN(CCc2ccc3c(c2)OCO3)CC1

>  <study_system>
α2A receptors (Rattus norvegicus)

>  <endpoint_name>
Ki

>  <experimental_result>
550

$$$$

* * *

- study_system: α1D adrenoceptors (Rattus norvegicus)
- Construct: the rat thoracic aorta corresponds to a tissue expressing mainly α1D-adrenoceptors; from tissue; host or cells: rat thoracic aorta rings
- Sequence (P23944 1-561): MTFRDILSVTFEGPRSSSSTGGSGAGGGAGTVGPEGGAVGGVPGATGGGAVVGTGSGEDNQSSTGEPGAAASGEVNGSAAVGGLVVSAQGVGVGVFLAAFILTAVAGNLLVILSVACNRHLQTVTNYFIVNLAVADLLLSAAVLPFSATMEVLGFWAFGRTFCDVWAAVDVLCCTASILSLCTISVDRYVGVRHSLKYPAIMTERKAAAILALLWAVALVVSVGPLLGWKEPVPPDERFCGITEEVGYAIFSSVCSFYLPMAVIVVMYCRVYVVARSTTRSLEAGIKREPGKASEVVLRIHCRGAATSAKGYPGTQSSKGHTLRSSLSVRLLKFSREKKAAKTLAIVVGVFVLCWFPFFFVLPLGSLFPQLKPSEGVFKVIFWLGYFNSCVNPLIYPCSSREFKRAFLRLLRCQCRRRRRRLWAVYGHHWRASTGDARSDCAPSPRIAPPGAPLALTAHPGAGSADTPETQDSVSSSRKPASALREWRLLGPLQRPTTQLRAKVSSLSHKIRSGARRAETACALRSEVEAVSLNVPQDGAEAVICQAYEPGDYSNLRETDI
- experiment: Phenylephrine-induced contraction inhibition in rat aorta (isometric contraction, Schild KB)
- Format: cell-based
- condition_notes: Table 2; Schild equation; 50 nM (62-69) or 10 nM (70, 39); read-out: KB

>  <molecule>
CCCCN1CCN(c2ccccc2OC)CC1 [LDT 64]

>  <Kb>
11.7 nM

$$$$
>  <molecule>
CCCCCCN1CCN(c2ccccc2OC)CC1 [LDT 66]

>  <Kb>
1.66 nM

$$$$
>  <molecule>
CCN1CCN(c2ccccc2OC)CC1 [LDT 62]

>  <Kb>
8.3 nM

$$$$
>  <molecule>
CCCN1CCN(c2ccccc2OC)CC1 [LDT 63]

>  <Kb>
31.5 nM

$$$$
>  <molecule>
CCOc1ccccc1N1CCN(CC)CC1 [LDT 69]

>  <Kb>
8.71 nM

$$$$
>  <molecule>
CCN1CCN(c2ccccc2)CC1 [LDT 39]

>  <Kb>
141 nM

$$$$
>  <molecule>
CCCCCCCN1CCN(c2ccccc2OC)CC1 [LDT 67]

>  <Kb>
1.82 nM

$$$$
>  <molecule>
CCCCCCCCN1CCN(c2ccccc2OC)CC1 [LDT 68]

>  <Kb>
4.36 nM

$$$$
>  <molecule>
CCN1CCN(c2ccccc2O)CC1 [LDT 70]

>  <Kb>
85.1 nM

$$$$
